Where do the numbers come from? From patent US20260262643A1.

tested on: pigweed, palmer; experiment: Test C postemergence; assay type: in vivo, Amaranthus palmeri; settings: Postemergence, 500 g ai/ha, 10 days, visual 0 to 100 scale (0 no effect, 100 complete control)
MEASURED ENDPOINT: Plant response rating, Pigweed, Palmer

// known answers, use as guide
[[record]]
molecule = "Cc1ccc(-n2cnc(C3(C(F)(F)F)CCC3)n2)cc1C(=O)N1C[C@H](C)Oc2c(Cl)cccc21 [Compound 168]"
measured_endpoint = "Plant response rating, Pigweed, Palmer"
experimental_result = 90

[[record]]
molecule = "Cc1cc(-n2cnc(C(C)C)n2)cc(C(=O)N2C[C@H](C)Oc3c(Cl)cccc32)c1C [Compound 259]"
measured_endpoint = "Plant response rating, Pigweed, Palmer"
experimental_result = 90

[[record]]
molecule = "CCc1c(F)cc(-n2cnc(C(C)C)n2)cc1C(=O)N1C[C@H](C)Oc2c(Cl)cccc21 [Compound 152]"
measured_endpoint = "Plant response rating, Pigweed, Palmer"
experimental_result = 90

[[record]]
molecule = "Cc1ccc(-n2cnc(C(C)C)n2)cc1C(=O)N1C[C@H](C)Oc2c1cccc2C(F)(F)F [Compound 170]"
measured_endpoint = "Plant response rating, Pigweed, Palmer"
experimental_result = 100

[[record]]
molecule = "CC(C)n1cnc(-c2cccc(C(=O)N3C[C@H](C)Oc4c(Cl)cccc43)c2)n1 [Compound 172]"
measured_endpoint = "Plant response rating, Pigweed, Palmer"
experimental_result = 0

[[record]]
molecule = "CC(C)=C(C)c1ncn(-c2cccc(C(=O)N3C[C@H](C)Oc4c(C)cccc43)c2)n1 [Compound 262]"
measured_endpoint = "Plant response rating, Pigweed, Palmer"
experimental_result = 90

[[record]]
molecule = "COC[C@H]1CN(C(=O)c2cc(-n3cnc(C4CC4)n3)ccc2OC)c2cccc(Cl)c2O1 [Compound 235]"
measured_endpoint = "Plant response rating, Pigweed, Palmer"
experimental_result = 90

[[record]]
molecule = "Cc1ccc(-n2cnc(C(C)(C)O)n2)cc1C(=O)N1C[C@H](C)Oc2c(C)cccc21 [Compound 256]"
measured_endpoint = "Plant response rating, Pigweed, Palmer"
experimental_result = 100


Q: Any idea what Plant response rating, Pigweed, Palmer was measured for COc1ccc(-n2cnc(C(C)C)n2)cc1C(=O)N1C[C@H](C)Oc2c(C)cccc21 [Compound 210] ?
Result: 100

Q: Same for COc1cc(C(=O)N2C[C@H](C)Oc3c(Cl)cccc32)cc(-n2cnc(C(C)C)n2)c1 [Compound 212]
Result: 90

Q: Cc1ccc(-n2cnc(C3(C(F)(F)F)CC3)n2)cc1C(=O)N1C[C@H](C)Oc2c(Cl)cccc21 [Compound 175] , same question.
Result: 90

Q: Item: CCc1ncn(-c2ccc(OC)c(C(=O)N3C[C@H](COC)Oc4c(Cl)cccc43)c2)n1 [Compound 231]
Result: 90

Q: Entry Cc1ccc(-n2cnc(C(C)(C)C)n2)cc1C(=O)N1CC(C(F)(F)F)Oc2c(Cl)cccc21 (single isomer, unassigned) [Compound 192] please
Result: 100
